# Tested on: 945468-187-T-J3-PDC spheroids with HUVEC/MSC, viability
# measurement-description: Anticancer human tumor 945468-187-T-J3-PDC patient-derived rectal carcinoma cell line growth inhibition [PI3K]
# condition-info: second compound 0.1 µM; first compound 0.316 µM; hits give low values
Label key: Condition met means viability, T/C under 90%; Condition not met means viability, T/C of 90% or more.

# example entries with known answers
{"columns": ["molecule", "target-entity", "answer-label"],
 "data": [
  ["C[C@@H](NC(=O)c1ncnc(N)c1Cl)c1ncc(C(=O)Nc2cc(C(F)(F)F)c(Cl)cn2)s1 + CC(Nc1ncnc2nc[nH]c12)c1cc2cccc(Cl)c2c(=O)n1-c1ccccc1", "945468-187-T-J3-PDC spheroids with HUVEC/MSC, viability", "Condition not met"],
  ["C=CC(=O)N1CCN(c2nc(=O)n(-c3c(C)ccnc3C(C)C)c3nc(-c4c(O)cccc4F)c(F)cc23)C(C)C1 (stereo not given) + CC(Nc1ncnc2nc[nH]c12)c1cc2cccc(Cl)c2c(=O)n1-c1ccccc1", "945468-187-T-J3-PDC spheroids with HUVEC/MSC, viability", "Condition not met"],
  ["Cn1ncc(Cl)c1-c1cc(C(=O)NC(CN)Cc2cccc(F)c2)sc1Cl (stereo not given) + CC(Nc1ccc2c(c1)OCCn1cc(N3C(=O)OCC3C(F)F)nc1-2)C(N)=O", "945468-187-T-J3-PDC spheroids with HUVEC/MSC, viability", "Condition met"],
  ["C#Cc1c(F)ccc2cc(O)cc(-c3ncc4c(N5CC6CCC(C5)N6)nc(OCC56CCCN5CC(F)C6)nc4c3F)c12 (stereo not given) + CC(Nc1ccc2c(c1)OCCn1cc(N3C(=O)OCC3C(F)F)nc1-2)C(N)=O", "945468-187-T-J3-PDC spheroids with HUVEC/MSC, viability", "Condition not met"]
]}

Query molecule follows.
Task: Is the reported viability, T/C for CCCS(=O)(=O)Nc1ccc(F)c(C(=O)c2c[nH]c3ncc(-c4ccc(Cl)cc4)cc23)c1F + Cc1nc(NC(=O)N2CCCC2C(N)=O)sc1-c1ccnc(C(C)(C)C(F)(F)F)c1 strictly below 90%?
Result: Condition not met

* * *

# Test system: 945468-187-T-J3-PDC spheroids with HUVEC/MSC, viability
# measurement-description: Anticancer human tumor 945468-187-T-J3-PDC cell line growth inhibition [PI3K];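 also: spheroids exposed to agents for 7 days before viability read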
# condition-info: second compound 1 µM; first compound 1 µM; hits give low values
Mark t only when viability, T/C stays strictly below 80%. Values equal to the cut-off are f.

{"columns": ["compound", "target-entity", "answer-label"],
 "data": [
  ["Cn1ncc(Cl)c1-c1cc(C(=O)NC(CN)Cc2cccc(F)c2)sc1Cl (stereo unspecified) + COc1c(OCCCN2CCOCC2)ccc2c3n(c(=NC(=O)c4cnc(N)nc4)nc12)CCN3", "945468-187-T-J3-PDC spheroids with HUVEC/MSC, viability", "t"],
  ["CC(Cn1ccc(-c2ccc(C#N)c(Cl)c2)n1)NC(=O)c1cc(C(C)O)[nH]n1 (stereo unspecified) + COc1c(OCCCN2CCOCC2)ccc2c3n(c(=NC(=O)c4cnc(N)nc4)nc12)CCN3", "945468-187-T-J3-PDC spheroids with HUVEC/MSC, viability", "t"],
  ["C=CC(=O)N1CCN(c2nc(=O)n(-c3c(C)ccnc3C(C)C)c3nc(-c4c(O)cccc4F)c(F)cc23)C(C)C1 (stereo unspecified) + Cc1nc(NC(=O)N2CCCC2C(N)=O)sc1-c1ccnc(C(C)(C)C(F)(F)F)c1", "945468-187-T-J3-PDC spheroids with HUVEC/MSC, viability", "f"],
  ["CCCS(=O)(=O)Nc1ccc(F)c(C(=O)c2c[nH]c3ncc(-c4ccc(Cl)cc4)cc23)c1F + CC(Nc1ncnc2nc[nH]c12)c1cc2cccc(Cl)c2c(=O)n1-c1ccccc1", "945468-187-T-J3-PDC spheroids with HUVEC/MSC, viability", "f"],
  ["Cn1ncc(Cl)c1-c1cc(C(=O)NC(CN)Cc2cccc(F)c2)sc1Cl (stereo unspecified) + Cc1nc(NC(=O)N2CCCC2C(N)=O)sc1-c1ccnc(C(C)(C)C(F)(F)F)c1", "945468-187-T-J3-PDC spheroids with HUVEC/MSC, viability", "t"]
]}

Task: Say whether its viability, T/C is strictly beneath 80%. Entry: CC(C)NCC(C(=O)N1CCN(c2ncnc3c2C(C)CC3O)CC1)c1ccc(Cl)cc1 (stereo unspecified) + CC(Nc1ncnc2nc[nH]c12)c1cc2cccc(Cl)c2c(=O)n1-c1ccccc1
Result: f

Task: A record lists CC(C)NCC(C(=O)N1CCN(c2ncnc3c2C(C)CC3O)CC1)c1ccc(Cl)cc1 (stereo unspecified) + COc1c(OCCCN2CCOCC2)ccc2c3n(c(=NC(=O)c4cnc(N)nc4)nc12)CCN3 . Is its viability, T/C below 80%?
Result: t

Task: Please state whether viability, T/C is below 80% for CC(Cn1ccc(-c2ccc(C#N)c(Cl)c2)n1)NC(=O)c1cc(C(C)O)[nH]n1 (stereo unspecified) + CC(Nc1ccc2c(c1)OCCn1cc(N3C(=O)OCC3C(F)F)nc1-2)C(N)=O
Result: t

Task: Lab note: viability, T/C threshold 80%. Does this compound come in strictly under it? CC(Cn1ccc(-c2ccc(C#N)c(Cl)c2)n1)NC(=O)c1cc(C(C)O)[nH]n1 (stereo unspecified) + CC(Nc1ncnc2nc[nH]c12)c1cc2cccc(Cl)c2c(=O)n1-c1ccccc1
Result: f
